Items are presented alongside their recorded MR (Molar Ratio).
target: T1, PSA(67-79)-G0F (human, also: Asn3 N-glycosylated with octasaccharide carrying alpha-1,6 core fucose (G0F)); assay: SPR, Biacore 8k, 37 C, antibody captured by anti-rabbit Fc, peptide as analyte
T1 construct: Synthetic glycopeptide (3.9 kDa as SPR analyte), made on Sieber Amide resin; For the ELISAs a biotinylated form was used (glutamic acid derivative with a PEG3-biotin side chain at the N-terminus); also called PSA(67-79)-GOF; glycopeptide of Formula Ib
T1 peptide: IRN(G0F)KSVILLGRHS-NH2
Ends that are not written are not given here. * marks the point of attachment. G0F = octasaccharide N-glycan with alpha-1,6 core fucose (Formula Ib, linkages Formula Ic), CC(=O)N[C@@H]1[C@@H](O)[C@H](O[C@@H]2O[C@H](CO)[C@@H](O[C@@H]3O[C@H](CO[C@H]4O[C@H](CO)[C@@H](O)[C@H](O)[C@@H]4O[C@@H]4O[C@H](CO)[C@@H](O)[C@H](O)[C@H]4NC(C)=O)[C@@H](O)[C@H](O[C@H]4O[C@H](CO)[C@@H](O)[C@H](O)[C@@H]4O[C@@H]4O[C@H](CO)[C@@H](O)[C@H](O)[C@H]4NC(C)=O)[C@@H]3O)[C@H](O)[C@H]2NC(C)=O)[C@@H](CO[C@@H]2O[C@@H](C)[C@@H](O)[C@@H](O)[C@@H]2O)O[C@H]1*
// no unit string in output, number only

Study these solved cases before continuing.
3B10 (antibody, V domains shown, Rabbit monoclonal IgG (150 kDa); also called anti-1,6fucPSA antibody 3B10) VH: QSLEESGGGLVKPGGTLTLTCKASGFSFSSGYDMCWVRQAPGKGLEWIACIYADGSDNTYYASWAKGRFTISKTSSTTVTLQMTRLTAADTATYFCAREGADNPNYGYAALRLWGPGTLVTVSS VL: DIVMTQTPASVEAPVGGTVTIKCQATQSISSYLSWYQQKPGQPPKLLIYKTSTLASGVPSRFKGSGSGTEFTLTISDLECANAATYYCQSYYGSISSDYGGFAFGGGTEVVVK	1
2H9 (antibody, V domains shown, Rabbit monoclonal IgG (150 kDa); also called anti-1,6fucPSA antibody 2H9) VH: QSLEESGGDLVKPGASLTLTCTASGFSFSSGYDMCWVRQAPGKGPEWIACIYADGSGSTYYASWAKGRFTISMTSSTTVTLQMTRLTAADTATYFCAREGADDPNYGYAALRLWGPGTLVTVSS VL: DIVMTQTPASVEAAVGGTVTIKCQASQSISNYLAWYQQKPGQPPKLLIYKTSTLASGVPSRFKGSGSGTEFTLTISDLECADAATYYCQSFYGSVSSDYGGFAFGGGTEVVVK	2
3H6 (antibody, V domains shown, Rabbit monoclonal IgG (150 kDa); also called anti-1,6fucPSA antibody 3H6) VH: QSLEESGGDLVKPGASLTLTCTASGFSFSSGYDMCWVRQAPGKGLEWIACIYADGSGSTYYASWAKGRFTISKPSSTTVTLQMTRLTAADTATYFCAREGADGPDYGYAAFSLWGPGTLVTVSS VL: DIVMTQTPASVEAAVGGTVTIKCQASQTISSYFSWYQQKPGQPPKLLIYKASSLASGVPSRFKGSGSGTQFTLTISDLECADAATYYCQSFYGSVSSDVGGFAFGGGTEVVVK	1

Next binder, MR (Molar Ratio) to be filled in.
Given the entry 13C5 (antibody, V domains shown, Rabbit monoclonal IgG (150 kDa); also called anti-1,6fucPSA antibody 13C5) VH: QSLEESGGDLVKPGASLTLTCTASGFSFSSGYDMCWVRQAPGKGLEWIGCIYADGSGTTYYATWAKGRFTISNPSATTVTLQMTRLTAADTATYFCAREGADNPNYGYAALRLWGPGTLVTVSS VL: DIVMTQTPASVSGAVGGTITIKCQASQSISNYFSWYQQKPGQPPKLLIYKTSTLASGVPSRFKGSGSGTEFTLTISDLECADAATYYCQSFWGSGSSDYGGFAFGGGTEVVVK , report its measured MR (Molar Ratio). 2
